- Tested on: streptococcus pneumoniae
- assay-summary: In vitro antibacterial activity, standard agar dilution method, Streptococcus pneumoniae
- Assay type: cell-based
- conditions: clinically separated strains
attribute-measured: Antibiotic Activity MIC Streptococcus pneumoniae (µg/mL)

compound	result
CC(=O)NC[C@H]1CN(c2ccc(-c3ccc4nc(-c5nnn(C)n5)cn4c3)c(F)c2)C(=O)O1 [Compound 38, reference compound]	0.5
Cn1nnc(N2Cc3ccc(-c4ccc(N5C[C@H](CO)OC5=O)cc4F)cc3C2)n1 [Compound 1]	0.25
CC(=O)NC[C@H]1CN(c2ccc(N3CCOCC3)c(F)c2)C(=O)O1 [Linezolid, reference compound]	2
O=C1O[C@@H](CO)CN1c1ccc(-c2ccc3c(c2)CN(c2cnn[nH]2)C3)c(F)c1 [Compound 3]	0.5
